Below are log10 of IC50 values recorded for Acetylcholinesterase (Electrophorus electricus).
Values are log10 of IC50 in nM.

Example results:
{"columns": ["COMPOUND", "VAL"],
 "data": [
  ["CC(C)=CCOc1cc(O)c2c(c1)OC(c1cccc(F)c1)CC2=O (stereo not given)", 2.96],
  ["CC(C)=CCOc1ccc2c(c1)OC(c1ccc(Br)cc1)CC2=O (stereo not given)", 2.89],
  ["CC(C)=CCOc1cc(O)c2c(c1)OC(c1cccc(Br)c1)CC2=O (stereo not given)", 2.91],
  ["O=C1C[C@@H](c2ccc(O)cc2)Oc2cc(O)ccc21", 3.96]
]}

IN: Missing value: log10 of IC50, Acetylcholinesterase (Electrophorus electricus), entry CC(C)=CCOc1ccc2c(c1)OC(c1ccccc1F)CC2=O (stereo not given) . Fill in?
OUT: 3.28

###

// reported IC50 per item
TEST_SYSTEM: Acetylcholinesterase (Electrophorus electricus)
Sequence (O42275 whole entry): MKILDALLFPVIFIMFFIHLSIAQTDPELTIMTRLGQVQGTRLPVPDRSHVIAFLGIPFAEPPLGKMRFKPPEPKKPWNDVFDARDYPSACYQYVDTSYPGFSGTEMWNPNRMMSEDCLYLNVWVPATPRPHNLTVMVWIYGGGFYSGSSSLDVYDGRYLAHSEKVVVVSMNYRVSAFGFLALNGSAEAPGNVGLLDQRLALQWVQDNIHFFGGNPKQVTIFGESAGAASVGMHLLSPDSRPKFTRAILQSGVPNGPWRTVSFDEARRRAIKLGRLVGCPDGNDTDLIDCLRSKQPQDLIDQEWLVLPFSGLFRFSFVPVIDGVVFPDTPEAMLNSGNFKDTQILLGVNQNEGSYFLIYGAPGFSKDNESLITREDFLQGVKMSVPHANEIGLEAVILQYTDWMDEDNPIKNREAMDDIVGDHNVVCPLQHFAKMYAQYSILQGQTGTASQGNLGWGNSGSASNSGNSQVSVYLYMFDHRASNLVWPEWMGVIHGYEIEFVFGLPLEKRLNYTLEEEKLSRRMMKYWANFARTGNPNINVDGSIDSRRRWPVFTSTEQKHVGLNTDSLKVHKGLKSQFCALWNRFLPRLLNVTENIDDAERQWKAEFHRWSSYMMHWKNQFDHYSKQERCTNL
# number only, unit µM dropped from output

Example results:
{"columns": ["COMPOUND", "IC50, µM"],
 "data": [
  ["CC(C)=CCOc1cc(O)c2c(c1)OC(c1ccc(Cl)cc1)CC2=O (stereo unspecified)", 1.17],
  ["CC(C)=CCOc1ccc2c(c1)OC(c1ccc(C)cc1C)CC2=O (stereo unspecified)", 0.94],
  ["CC(C)=CCOc1cc(O)c2c(c1)OC(c1ccccc1)CC2=O (stereo unspecified)", 3.04],
  ["CC(C)=CCOc1ccc2c(c1)OC(c1ccccc1Br)CC2=O (stereo unspecified)", 2.02],
  ["CC(C)=CCOc1cc(O)c2c(c1)OC(c1ccc(O)cc1)CC2=O (stereo unspecified)", 2.37]
]}

Let us examine a further case.
IN: IC50 lookup needed for CC(C)=CCOc1ccc2c(c1)OC(c1ccc(F)cc1)CC2=O (stereo unspecified) , thanks.
OUT: 0.55

###

TEST_SYSTEM: Cholinesterase (Equus caballus)
ASSAY_OVERVIEW: Inhibition of equine serum BuChE using butyrylthiocholine chloride as substrate incubated for 15 to 20 mins by Ellman's method
READOUT_NAME: IC50 (µM)
# number only, unit µM dropped from output

Example results:
{"columns": ["MOLECULE", "IC50 (µM)"],
 "data": [
  ["COc1ccc(C2CC(=O)c3c(O)cc(OCC=C(C)C)cc3O2)c(OC)c1 (configuration not stated)", 5.46],
  ["CC(C)=CCOc1ccc2c(c1)OC(c1ccc(F)cc1)CC2=O (configuration not stated)", 2.58],
  ["CC(C)=CCOc1ccc2c(c1)OC(c1ccc(C)cc1)CC2=O (configuration not stated)", 4.09]
]}

Let us examine a further case.
IN: IC50 lookup needed for CC(C)=CCOc1ccc2c(c1)OC(c1ccccc1)CC2=O (configuration not stated) , thanks.
OUT: 9.54

###

TEST_SYSTEM: Cholinesterase (Equus caballus, UniProt P81908)
Sequence (P81908 whole entry): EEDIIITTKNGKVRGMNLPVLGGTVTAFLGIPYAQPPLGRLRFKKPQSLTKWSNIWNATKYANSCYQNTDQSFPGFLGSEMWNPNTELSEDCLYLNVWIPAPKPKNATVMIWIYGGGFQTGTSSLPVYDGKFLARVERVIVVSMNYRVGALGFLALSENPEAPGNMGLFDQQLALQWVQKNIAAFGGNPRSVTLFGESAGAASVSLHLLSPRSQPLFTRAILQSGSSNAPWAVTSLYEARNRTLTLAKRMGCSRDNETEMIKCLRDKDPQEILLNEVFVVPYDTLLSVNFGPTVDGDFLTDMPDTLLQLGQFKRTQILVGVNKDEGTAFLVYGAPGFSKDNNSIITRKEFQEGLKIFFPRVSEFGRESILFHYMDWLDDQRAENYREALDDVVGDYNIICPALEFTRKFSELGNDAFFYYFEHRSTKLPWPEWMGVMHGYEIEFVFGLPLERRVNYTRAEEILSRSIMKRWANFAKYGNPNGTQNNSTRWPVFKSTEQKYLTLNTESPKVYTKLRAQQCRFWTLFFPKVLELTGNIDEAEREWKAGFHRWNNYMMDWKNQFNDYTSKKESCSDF
ASSAY_OVERVIEW: Inhibition of equine serum BuChE using butyrylthiocholine chloride as substrate incubated for 15 to 20 mins by Ellman's method
READOUT_NAME: pIC50
Schema: pIC50 number; meaning minus log10 of the concentration expressed in molar units.

Example results:
{"columns": ["COMPOUND", "pIC50"],
 "data": [
  ["CC(C)=CCOc1ccc2c(c1)OC(c1ccccc1Cl)CC2=O (stereo not drawn)", 5.27],
  ["CC(C)=CCOc1ccc2c(c1)OC(c1ccc(C)cc1C)CC2=O (stereo not drawn)", 5.47],
  ["CC(C)=CCOc1cc(O)c2c(c1)OC(c1ccc(F)cc1)CC2=O (stereo not drawn)", 5.16],
  ["CC(C)=CCOc1ccc2c(c1)OC(c1ccc(O)cc1)CC2=O (stereo not drawn)", 5.30],
  ["COc1ccc(C2CC(=O)c3ccc(OCC=C(C)C)cc3O2)c(OC)c1 (stereo not drawn)", 5.25],
  ["CC(C)=CCOc1cc(O)c2c(c1)OC(c1ccccc1F)CC2=O (stereo not drawn)", 5.13],
  ["COc1ccc(C2CC(=O)c3ccc(OCC=C(C)C)cc3O2)cc1 (stereo not drawn)", 5.34]
]}

Let us examine a further case.
IN: pIC50 lookup needed for CC(C)=CCOc1cc(O)c2c(c1)OC(c1ccccc1Br)CC2=O (stereo not drawn) , thanks.
OUT: 5.41
